- target or system: T1, full length recombinant human 2N4R tau (human, UniProt P10636 1-758)
- T1 construct: bought from rPeptide; pHrodo Red maleimide-labelled where it stands in uptake assays; also called tau1-441; full length tau
- T1 sequence (P10636 other isoform, or with tags, fused parts or gaps limits assumed): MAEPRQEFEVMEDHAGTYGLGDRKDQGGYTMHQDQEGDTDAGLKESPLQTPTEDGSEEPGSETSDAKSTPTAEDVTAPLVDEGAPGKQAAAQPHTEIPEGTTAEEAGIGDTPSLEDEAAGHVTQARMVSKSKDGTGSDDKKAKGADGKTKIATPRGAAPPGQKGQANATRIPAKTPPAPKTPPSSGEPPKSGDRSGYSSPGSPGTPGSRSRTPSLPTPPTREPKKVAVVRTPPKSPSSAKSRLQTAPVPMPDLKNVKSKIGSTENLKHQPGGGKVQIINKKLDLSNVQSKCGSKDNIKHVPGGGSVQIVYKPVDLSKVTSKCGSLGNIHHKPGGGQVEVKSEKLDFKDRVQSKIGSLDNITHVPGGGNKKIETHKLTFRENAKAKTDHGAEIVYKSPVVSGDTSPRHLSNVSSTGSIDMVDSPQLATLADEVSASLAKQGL
- measurement notes: SPR SCK, IgG on Protein A, tau in flow
value type: kon (M⁻¹ s⁻¹)
Express the result in M⁻¹ s⁻¹ but write the number alone.

Example results:
[
  {
    "binder": "#44_VH4VK4_H15/pVL (antibody, V domains shown, also called Clone VH4_H15; #44_VH4_H15) VH: QVQLQESGPGLVKPSETLSLTCTVSGIDLSSYAMAWVRQAPGKGLEWIGAIDSVGNTFYASWVKGRFTISKDTSKTTVDLQMTSLTAEDTATYFCARDSGAFDPWGQGTLVTVSS VL: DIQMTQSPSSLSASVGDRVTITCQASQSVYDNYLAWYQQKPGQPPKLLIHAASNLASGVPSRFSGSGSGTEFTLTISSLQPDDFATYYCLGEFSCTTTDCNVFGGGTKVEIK",
    "u": "M⁻¹ s⁻¹",
    "observed result": "4.12e+06"
  },
  {
    "binder": "#44_VH4VK4_H02/pVL (antibody, V domains shown, also called Clone VH4_H02; #44_VH4_H02) VH: QVQLQESGPGLVKPSETLSLTCTVSGIDLSSYAMAWVRQAPGKGLEWIGCIDRRGGTFYASWVKGRFTISKDTSKTTVDLQMTSLTAEDTATYFCARDRGDFDVWGQGTLVTVSS VL: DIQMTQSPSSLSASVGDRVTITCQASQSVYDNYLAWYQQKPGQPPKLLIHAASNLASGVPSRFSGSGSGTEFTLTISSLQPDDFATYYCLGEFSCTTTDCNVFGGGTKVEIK",
    "u": "M⁻¹ s⁻¹",
    "observed result": "2.78e+06"
  },
  {
    "binder": "#44_VH4VK4_H19/pVL (antibody, V domains shown, also called Clone VH4_H19; #44_VH4_H19) VH: QVQLQESGPGLVKPSETLSLTCTVSGIDLSSYAMAWVRQAPGKGLEWIGAIDSRGATFYASWVKGRFTISKDTSKTTVDLQMTSLTAEDTATYFCARDSGAFDPWGQGTLVTVSS VL: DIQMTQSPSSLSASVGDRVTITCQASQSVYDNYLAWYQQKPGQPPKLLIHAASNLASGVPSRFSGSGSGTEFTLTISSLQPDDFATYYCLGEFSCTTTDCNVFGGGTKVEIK",
    "u": "M⁻¹ s⁻¹",
    "observed result": "1.26e+06"
  },
  {
    "binder": "#44_VH4VK4_H09/pVL (antibody, V domains shown, also called Clone VH4_H09; #44_VH4_H09) VH: QVQLQESGPGLVKPSETLSLTCTVSGIDLSSYAMAWVRQAPGKGLEWIGAIDARGNTFYASWVKGRFTISKDTSKTTVDLQMTSLTAEDTATYFCARDSGAFDPWGQGTLVTVSS VL: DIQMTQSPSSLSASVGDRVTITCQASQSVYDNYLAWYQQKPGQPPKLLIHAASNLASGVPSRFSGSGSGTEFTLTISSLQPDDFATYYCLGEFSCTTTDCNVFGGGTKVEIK",
    "u": "M⁻¹ s⁻¹",
    "observed result": "3.25e+06"
  }
]

-- ask What value of kon has been reported for the following binder? #44_VH4VK4_H03/pVL (antibody, V domains shown, also called Clone VH4_H03; #44_VH4_H03) VH: QVQLQESGPGLVKPSETLSLTCTVSGIDLSSYAMAWVRQAPGKGLEWIGCIDRRGGTFYASWVKGRFTISKDTSKTTVDLQMTSLTAEDTATYFCARDAGAFDVWGQGTLVTVSS VL: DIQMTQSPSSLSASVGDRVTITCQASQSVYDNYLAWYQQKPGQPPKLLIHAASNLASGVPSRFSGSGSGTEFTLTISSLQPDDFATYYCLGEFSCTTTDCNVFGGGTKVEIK
-- reply 2.36e+06

-- ask And the next one, #44_VH4VK4_H13/pVL (antibody, V domains shown, also called Clone VH4_H13; #44_VH4_H13) VH: QVQLQESGPGLVKPSETLSLTCTVSGIDLSSYAMAWVRQAPGKGLEWIGAIDSAGNTFYASWVKGRFTISKDTSKTTVDLQMTSLTAEDTATYFCARDSGAFDPWGQGTLVTVSS VL: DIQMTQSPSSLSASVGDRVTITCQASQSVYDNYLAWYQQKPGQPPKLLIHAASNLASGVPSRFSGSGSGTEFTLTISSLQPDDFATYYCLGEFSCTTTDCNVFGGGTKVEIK ?
-- reply 855000
